meta.source: patent US20040053323A1

- Target Or Test System: Δ122-iNOSox (Homo sapiens, UniProt P35228)
- Construct: genes of the oxygenase domain region (amino acids 1 to 526) by PCR; His tag; vector pTrcHis2 (Invitrogen)
- Sequence (P35228 123-526 limits assumed, stated change not applied): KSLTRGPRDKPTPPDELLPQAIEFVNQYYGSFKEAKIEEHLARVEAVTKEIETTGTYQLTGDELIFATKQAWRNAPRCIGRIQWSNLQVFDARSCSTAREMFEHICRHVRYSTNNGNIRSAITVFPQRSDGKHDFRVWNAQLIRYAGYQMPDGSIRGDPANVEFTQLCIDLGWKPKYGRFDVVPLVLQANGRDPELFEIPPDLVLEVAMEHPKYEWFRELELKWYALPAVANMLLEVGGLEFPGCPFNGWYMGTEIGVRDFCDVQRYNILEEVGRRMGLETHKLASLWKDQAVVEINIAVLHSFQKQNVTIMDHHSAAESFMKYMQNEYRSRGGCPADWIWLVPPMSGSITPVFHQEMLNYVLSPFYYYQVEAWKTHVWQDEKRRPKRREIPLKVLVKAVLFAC
- Assay Overview: Binding assay of ^3H-compound A with Δ122-iNOSox (gel filtration mini column, scintillation counting)
- Reported Conditions: Δ122-iNOSox protein, ^3H-compound A; saturation curve and Scatchard plot
Assay Readout: pKd
Give only the number. pKd is defined as minus log10 of concentration in molar units.

Name the recorded pKd of the compound listed here: CN(Cc1cccnc1)C(=O)[C@H](Cc1ccccc1)NC(=O)[C@H](Cc1ccccn1)NC(=O)c1cc2ccccc2o1 [compound A]
7.87
